Biological target: TAFIa (Homo sapiens (Human))
Test: Determination of TAFIa enzyme inhibitory activity (FAAK substrate degradation)
Format: biochemical
Settings: TAFI activated with human thrombin / rabbit lung thrombomodulin; substrate FAAK, absorbance at 330 nm; read-out: TAFIa IC50
Structures can show the parent of a compound that is named as a salt.
Below is a list of entries, each paired with its recorded IC50 value.

Known results for compounds:
>>> measured_value("NCCC[C@H]1C[C@]1(C(=O)O)c1cn(-c2cccnc2)cn1 (relative stereo)")
"98 nM"
>>> measured_value("CC(C)(CN)C[C@@H]1C[C@]1(C(=O)O)c1cn(-c2ccccc2)cn1 (relative stereo)")
"> 300 nM"
>>> measured_value("CCOC(=O)[C@]1(c2cn(-c3ccc(C)cc3)cn2)C[C@@H]1CCCN (relative stereo) [Example 26, hydrochloride]")
"10000 nM"
>>> measured_value("Cc1ccc(-n2cnc([C@@]3(C(=O)O)C[C@@H]3CCCN)c2)cc1C (relative stereo)")
"42 nM"

Given item Cc1ccc(-n2cnc([C@@]3(C(=O)O)C[C@@H]3CCCN)c2)cc1 (relative stereo) , the value recorded as its IC50 is 16 nM

* * *

Target: TAFIa (Homo sapiens (Human), UniProt Q96IY4)
Sequence (Q96IY4 115-423): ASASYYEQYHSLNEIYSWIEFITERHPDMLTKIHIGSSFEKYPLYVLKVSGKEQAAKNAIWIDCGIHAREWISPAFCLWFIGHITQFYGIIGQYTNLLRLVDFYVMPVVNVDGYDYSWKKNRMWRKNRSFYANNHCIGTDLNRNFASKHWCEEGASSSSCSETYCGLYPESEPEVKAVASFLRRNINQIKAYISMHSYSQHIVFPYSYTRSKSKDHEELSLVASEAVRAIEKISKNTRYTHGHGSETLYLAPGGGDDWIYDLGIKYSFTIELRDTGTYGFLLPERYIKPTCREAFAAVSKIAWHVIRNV
Experiment: Determination of TAFIa enzyme inhibitory activity (FAAK substrate degradation)
Type: biochemical
Details: TAFI activated with human thrombin / rabbit lung thrombomodulin; substrate FAAK, absorbance at 330 nm; read-out: TAFIa IC50
Structures can show the parent of a compound that is named as a salt.
Below is a list of entries, each paired with its recorded IC50 value.
Your answer should be a plain number; it is taken to be in nM.

Known results for compounds:
>>> measured_value("NCCC[C@H]1C[C@]1(C(=O)O)c1cn(-c2cccc(Cl)c2)cn1 (relative stereo)")
70
>>> measured_value("CCCn1cnc([C@@]2(C(=O)O)C[C@@H]2CCCN)c1 (relative stereo)")
97
>>> measured_value("NCCC[C@H]1C[C@]1(C(=O)O)c1cn(-c2ccccc2)cn1 (relative stereo) [Example 6]")
27
>>> measured_value("C[C@H]1CC[C@H](n2cnc([C@@]3(C(=O)O)C[C@@H]3CCCN)c2)CC1 (relative stereo)")
14
>>> measured_value("NCCC[C@H]1C[C@]1(C(=O)O)c1cn(-c2ccccn2)cn1 [Example 48]")
11

The reported TAFIa (Homo sapiens (Human), UniProt Q96IY4) IC50 of Cc1cccc(-n2cnc([C@@]3(C(=O)O)C[C@@H]3CCCN)c2)c1 (relative stereo) is 37

The reported TAFIa (Homo sapiens (Human), UniProt Q96IY4) IC50 of Cc1ccc(-n2cnc([C@@]3(C(=O)O)C[C@@H]3C[C@@H](C)CN)c2)nc1 is 8.7

The reported TAFIa (Homo sapiens (Human), UniProt Q96IY4) IC50 of COc1ccc(-n2cnc([C@@]3(C(=O)O)C[C@@H]3CCCN)c2)nc1 (relative stereo) is 16

The reported TAFIa (Homo sapiens (Human), UniProt Q96IY4) IC50 of NCCC[C@H]1C[C@]1(C(=O)O)c1cn(-c2ccc(Cl)cn2)cn1 (relative stereo) is 63

The reported TAFIa (Homo sapiens (Human), UniProt Q96IY4) IC50 of CC[C@@H](CN)C[C@H]1C[C@]1(C(=O)O)c1cn(-c2ccccn2)cn1 is 8.3

The reported TAFIa (Homo sapiens (Human), UniProt Q96IY4) IC50 of NCCC[C@H]1C[C@]1(C(=O)O)c1cn(-c2ccccc2Cl)cn1 (relative stereo) [Example 20, hydrochloride] is 140

The reported TAFIa (Homo sapiens (Human), UniProt Q96IY4) IC50 of C[C@H](CN)C[C@H]1C[C@]1(C(=O)O)c1cn(-c2ccccc2)cn1 is 35

The reported TAFIa (Homo sapiens (Human), UniProt Q96IY4) IC50 of Cc1cccc(-n2cnc([C@@]3(C(=O)O)C[C@@H]3CCCN)c2)n1 (relative stereo) is 73

The reported TAFIa (Homo sapiens (Human), UniProt Q96IY4) IC50 of C[C@@H](CN)C[C@H]1C[C@]1(C(=O)O)c1cn(-c2ccccn2)cn1 is 11

The reported TAFIa (Homo sapiens (Human), UniProt Q96IY4) IC50 of COc1ccc(-n2cnc([C@@]3(C(=O)O)C[C@@H]3CCCN)c2)cc1 (relative stereo) is 36

The reported TAFIa (Homo sapiens (Human), UniProt Q96IY4) IC50 of NCCC[C@H]1C[C@]1(C(=O)O)c1cn(-c2ccc(Oc3ccccc3)cc2)cn1 (relative stereo) is 52
